system: PCSK9 gene; assay: PCSK9 gRNA/SpCas9 editing in primary cynomolgus hepatocytes (Tables 2, 22); format: cell-based, cynomolgus monkey; settings: SpCas9 mRNA MS002, 1250 ng/test article/mL, rep1
In the oligonucleotide strings, read from the 5' end, every base follows the letter of its sugar. An asterisk marks phosphorothioate; unmarked linkages are phosphodiester. Other units and linkages are bracketed, terminal groups are in braces. A string of capitals states the bases alone. m = 2'-O-methyl; r = 2'-OH (RNA)

Molecule: GA402 (nucleic acid) guide: mU*mC*mA*rGrCrUrCrCrArGrGrCrGrGrUrCrCrUrGrGmGrUrUrUrUrArGmAmGmCmUmArGmAmAmAmUmAmGmCmAmArGrUrUmArAmArAmUrAmAmGmGmCmUmArGrUmCmCrGrUrUrAmUmCrArAmCmUmUrGmAmAmAmAmAmGmUmGrGmCmAmCmCmGmAmGmUmCmGmGmUmGmCmU*mU*mU*mUmUrUmU
Cynomolgus Primary Hepatocytes-% Editing, %: 44.46
--
Molecule: GA401 (nucleic acid) guide: mU*mC*mA*rGrCrUrCrCrArGrGrCrGrGrUrCrCrUrGrGmGrUrUrUrUrArGmAmGmCmUmAmGmAmAmAmUmAmGmCmAmArGrUrUmArAmArAmUrAmAmGmGmCmUmArGrUmCmCrGrUrUrAmUmCrArAmCmUmUmGmAmAmAmAmAmGmUmGrGmCmAmCmCmGmAmGmUmCmGmGmUmGmCmU*mU*mU*mUmUmUmU
Cynomolgus Primary Hepatocytes-% Editing, %: 49.12
--
Molecule: GA395 (nucleic acid) guide: mU*mC*mA*rGrCrUrCrCrArGrGrCrGrGrUrCrCrUrGrGmGrUrUrUrUrArGmAmGmCmUmArGmAmAmAmUmAmGmCmAmArGrUrUmArAmArAmUrAmAmGmGmCmUmArGrUmCmCrGrUrUrAmUmCrArAmCmUmUrGmAmAmAmAmAmGmUmGrGmCmAmCmCmGmAmGmUmCmGmGmUmGmCmU*mU*mU*mUmUmUmU
Cynomolgus Primary Hepatocytes-% Editing, %: 41.48
